system: Streptococcus agalactiae; experiment: MIC, microdilution method, reference strains; assay type: cell-based; settings: read after 24/48 hours of incubation at 37° C.
READOUT NAME: MIC (µg/mL)

CCCCCCCCCCCCCCCOP(=O)(CCN(CCN)CCN)OC[C@H]1O[C@@H](n2ccc(=O)[nH]c2=O)C(O)C1O (stereo partly shown)
3.12
CCCCCCCCCCCCCCCOP(=O)(CCN(CCCN)CCCN)OC[C@H]1O[C@@H](n2ccc(=O)[nH]c2=O)C(O)C1O (stereo partly shown)
3.12
CCCCCCCCCCCCCCCOP(=O)(CCN(CCCNC(=N)N)CCCNC(=N)N)OC[C@H]1O[C@@H](n2ccc(=O)[nH]c2=O)C(O)C1O (stereo partly shown)
1.56

I: CCCCCCCCCCCCCCOP(=O)(CCN(CCN)CCN)OC[C@H]1O[C@@H](n2ccc(=O)[nH]c2=O)C(O)C1O (stereo partly shown)
II: CCCCCCCCCCCCOP(=O)(CCN(CCCN)CCCN)OC[C@H]1O[C@@H](n2ccc(=O)[nH]c2=O)C(O)C1O (stereo partly shown)
// select label with min value of measured MIC from [ I , II ] Give the label under which the chosen entry appears.
I
(I: 6.25 µg/mL, II: 12.5 µg/mL)
